Target: human TAS2R14 (Homo sapiens, UniProt Q9NYV8)
Construct: expressed in transfected cells; host or cells: HEK293T-Gα16gust44
Sequence (Q9NYV8 1-317): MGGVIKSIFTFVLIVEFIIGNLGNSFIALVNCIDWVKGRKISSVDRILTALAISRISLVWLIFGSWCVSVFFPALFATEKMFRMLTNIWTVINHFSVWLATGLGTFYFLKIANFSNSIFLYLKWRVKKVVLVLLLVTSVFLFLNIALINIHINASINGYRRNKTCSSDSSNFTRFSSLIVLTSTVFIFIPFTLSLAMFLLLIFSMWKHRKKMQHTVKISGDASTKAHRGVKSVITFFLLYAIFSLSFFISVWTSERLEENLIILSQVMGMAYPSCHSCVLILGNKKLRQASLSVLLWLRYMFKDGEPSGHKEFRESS
Experiment: Calcium imaging assay (FLIPR), HEK293T-Gα16gust44 cells transfected with human TAS2R14
Format: cell-based
Details: TAS2R14 trace; Time (s) 329.578 (Taurocholic Acid 329.563, Chenodeoxycholic Acid 329.546)
Use 100 RLU as the dividing line for RLU, with the line itself on the label 1 side and lower values as label 0.

Solved entries (count: 3):
Ask | Is reported RLU greater than or equal to 100 RLU here: C[C@H](CCC(=O)NCCS(=O)(=O)O)[C@H]1CC[C@H]2[C@@H]3[C@H](O)C[C@@H]4C[C@H](O)CC[C@]4(C)[C@H]3C[C@H](O)[C@]12C [Taurocholic Acid, taurocholic acid]
Reply | label 0

Ask | Please answer likewise for C[C@H](CCC(=O)NCC(=O)O)[C@H]1CC[C@H]2[C@@H]3[C@H](O)C[C@@H]4C[C@H](O)CC[C@]4(C)[C@H]3C[C@H](O)[C@]12C [Glycocholic Acid, glycocholic acid]
Reply | label 1

Ask | Item: C[C@H](CCC(=O)O)[C@H]1CC[C@H]2[C@@H]3[C@H](O)C[C@@H]4C[C@H](O)CC[C@]4(C)[C@H]3C[C@H](O)[C@]12C [Cholic Acid, cholic acid]
Reply | label 1

More entries:
Ask | Threshold query (RLU >= 100 RLU) on C[C@H](CCC(=O)O)[C@H]1CC[C@H]2[C@@H]3[C@H](O)C[C@@H]4C[C@H](O)CC[C@]4(C)[C@H]3CC[C@]12C [Chenodeoxycholic Acid, chenodeoxycholic acid]
Reply | label 1

Ask | Try this compound too: C[C@H](CCC(=O)NCCS(=O)(=O)O)[C@H]1CC[C@H]2[C@@H]3CC[C@@H]4C[C@H](O)CC[C@]4(C)[C@H]3CC[C@]12C [Taurolithocholic Acid, taurolithocholic acid]
Reply | label 0
